system: gene editing with Cas9; experiment: Screen of 322 new SSAP proteins, gene editing activity with Cas9 (Table 5); format: cell-based; conditions: normalized
Would you please tag the item 1 when its Cas9 with SSAP activity (normalized) is -0.01 or above, and -1 when it is below?

Some solved cases for reference:
SSAP_277: SEQ ID NO: 446; Nocardia terpenica (protein, listed as Nocardia terpenica) SSIAAAAESAEVTPASIINKYRDDIATVLPPKLRERIDRWIRLAIGAVNSNPELISRVRADQGASMMQALMKCAALGHEPGSGLFHLVPKGSRIEGWEDYKGILQRIDRSGVYARTVIGVVYANDEYSYDQNVDERPRHVRATGDRGEPISSYAYAVYPSGAITTVAEATPEQIASSKSKARGADNAASPWRAPGAPMHRKVAVRLLEKHVATSAEDRREPISRSAANDVVIDATADYYQEP: -1
SSAP_135: SEQ ID NO: 304; Amycolatopsis arida (protein, listed as Amycolatopsis arida) HGTALNPERFTRVALTVIRQSADLQRCRPESLLGALMTSAQLGLEPGPLGEAYLVPYGDQVTFIPGYRGLIKLAWQSGQLRHISARVVHEGDRFSYSYGLHPDLIHQPTRGDRGPITDVYAAATLIDGGVEFEVLDVATVETIRARSRAGRKGPWVTDWEAMARKTAIRQLAKWLPMATVMSRAIAAEGTVRTDLDADALDDLTADPGPEVLDADPAWDGPEPPGDQARNQEPTTQGDA: -1
SSAP_94: SEQ ID NO: 263; Providencia alcalifaciens (protein, listed as Providencia alcalifaciens) STPPLAKSDLQKTQGTEVKIKTNEQKLVEFINQPGMKAQLAAALPKHITSDRMIRIVSTEIRKTPSLANCDIQSFIGAVVQCSQLGLEPGNALGHAYLLPFGNGKSDNGQQNVQLIIGYRGMIDLARRSGQIISISARTVRQGDNFHFEYGLNENLTHIPEGNEDSPITHVYAVARLKDGGVQFEVMTYNQIEKVRNLSKAGKNGPWVTHWEEMAKKTVIRRLFKYLPVSIEMQKAVILDEKAEANIEQEHSAIFEAEFEEVDSNGN: -1
SSAP_239: SEQ ID NO: 408; Paenibacillus polymyxa (protein, listed as Paenibacillus polymyxa) PDKLLVIHDNLNKMLDEKSEAMPTSFNKTRFLQNCMAVLQDTKDIEQCDAKSVARTMLKGAFLGLDFFNKECYAIPYNENIGTKNKPRWIKSLQFQTDYKGEKKLAKKYSTRRVKDIYAKLVRDGDDFREEIESGQPTINFRPLPFNDGIIRGAFAVALFEDGGMIYETMSLKEIEKTRDDYSKQSTGKAWTKSPGEMYKKTVLRRLCKNIELDFDTIEQAQAFEDSSDFDMNKELKPQQQSPLNPNTTIIDAEYEEIKEEPADGPEQE: 1
SSAP_156: SEQ ID NO: 325; Bacillus sp. AFS017336 (protein, listed as Bacillus sp.) ATNESLKNQITNKKTGEVPLTPAQQVSSYLKAYEGTFQQIAPKHFNTERFQRIALSEIRKNPKLLECSVPSLMSAVLQSVKLGLEPGLFGQAYLIPYGKEVQFQIGYRGLIELSQRSGRILKIQAREVYENDEFEVSYGIDDNIIHKPALDVDRGKVRLYYAVAWFKDGGAQFELMSISDVEKHRDKFSKTAKFGPWKDHFDEMAKKTVLKKLVKQLPMDVEFQEAVQEDETVRKTITDEPEILQAEFEIVDQPEISVE: 1

Is the recorded value of Cas9 with SSAP activity (normalized) equal to or greater than -0.01 for this molecule? SSAP_243: SEQ ID NO: 412; Nocardia puris (protein, listed as Nocardia puris) AESISSEVARQASPLAVVARYRSELAGSLPAAVRHDVDRWLMVAEMAVRRSPDLMEIVRRDQGASLMRALIECARLGHEPGSPEFYLIPRGGIVSGEESYRGIIKRILNSGEYQRVVARVVHERDRFSFDPRIDEIPDHRPAEGERGAPARAYAFAVRWDGTPSTVGEATPERIIAAKAKARGVDRKDSPWNSPTGVMYRKTAIRELASYVHTSAEPRPRPAAPTEPPAVDEVSTVYDAEVIDEVDVLDITAEPTA
-1

Determine whether this molecule has Cas9 with SSAP activity (normalized) no lower than -0.01: SSAP_95: SEQ ID NO: 264; Proteus terrae (protein, listed as Proteus terrae) SNPPLAQADLQKTQGTEVREKTKDQMLVEFINKPNMKAQLAAALPRHMAPDRMIRIVTTEIRKTPELANCDMQSFVGAVVQCSQLGLEPGNALGHAYILPFEKKRKQGNQWVTVRTDAQLIIGYRGMIDLARRSGQIVSISARTVRQGDSFHFEYGLNENLTHVPGENEDSPITHVYAVARLKDGGVQFEVMTHNQIEKVRTSSKAGQNGPWVSHWEEMAKKTVIRRLFKYLPVSIEMQKAVILDEKAEANVDQENSSVFEGEFEEVGQGA
-1

Quick check: does SSAP_126: SEQ ID NO: 295; Marispirochaeta aestuarii (protein, listed as Marispirochaeta aestuarii) RTDGTKEAGAAATAPTEGKAPAKAHKPADTIGAMIEKLKPQIERALPKHVTPDRMARMALTAIRNNPKLGQAEAVSLMGSIIQASQLGLEPNTPLGQCYIIPYNSKNGMQAQFQMGYKGIVDLAHRSGQYRQLTAHPVDEADEFRYSYGLNPDLVHVPAEKPSGKITHYYAVYHLTNGGFDFRVWSREKVEAHAKQYSKSFSSGPWQTNFDQMACKTVMIDLLRYAPKSVEIAKATSADNRTHTINPEDPDLNIDTIDGDFELEGEER have Cas9 with SSAP activity (normalized) greater than or equal to -0.01?
-1
